System: SHR male rats, characterized by overactive bladder (OAB)
Test: Cystometry after acute oral treatment in SHR rats with spontaneous overactive bladder
Format: in vivo, rat
Conditions: 10 mg/kg po, 1 h after treatment, % of control period, mean±SEM, FIG. 3
Structures can show the parent of a compound that is named as a salt.
value type: Infused volume (bladder capacity) (%)

C[C@@H]1CN(c2ccc(C(=O)O)cn2)C[C@H](C)N1CC(=O)N1CCc2nn(-c3ccccc3)cc2C1 [compound n°2, hydrochloride]; 198.9
O=C(CN1CC2CCC(C1)N2c1ncc(F)cn1)N1CC=C(c2ccc(Cl)c(C(F)(F)F)c2)CC1; 194.9
C[C@@H]1CN(c2ccc(C(=O)O)cn2)C[C@H](C)N1CC(=O)N1CC=C(c2cccc3ccoc23)CC1; 167.14
O=C(CN1CC2CCC(C1)N2c1cccnc1)N1CCc2nn(-c3ccccc3)cc2C1; 186.2
